- assay_info: Selectivity index, ratio of IC50 for rat L6 cells to IC50 for erythrocytic stage of Plasmodium falciparum NF54
- Type: toxicity
- applied_conditions: read-out: Ratio IC50
Label satisfied when selectivity ratio is strictly below 0.9; otherwise label not satisfied.

Some entries whose results are on file:
C=C1C(=O)O[C@H]2/C=C(/C)[C@@H](O)C[C@@H](O)/C(C)=C\[C@H](OC(=O)/C(C)=C\C)[C@@H]12 : satisfied
C=C1C(=O)O[C@H]2[C@H]1[C@@H](OC(=O)/C(C)=C\C)CC(=C)[C@@H]1C=C[C@@](C)(O)[C@H]21 : satisfied
C=C1C(=O)O[C@H]2/C=C(/C)[C@@H](O)C/C=C(\C)C[C@H](OC(=O)/C(C)=C\C)[C@@H]12 : not satisfied

# next compound below
For this compound, is selectivity ratio lower than 0.9? C=C1C(=O)O[C@H]2/C=C(/C)[C@@H](O)C[C@@H]3O[C@]3(C)C[C@H](OC(=O)/C(C)=C/C)[C@@H]12 not satisfied
